Tested on: MCF-7 breast cancer cells
MEASUREMENT_DESCRIPTION: MTT cell toxicity assay in MCF-7 breast cancer cells
Type: cell-based
APPLIED_CONDITIONS: MCF-7 cells, MTT, final 0.5% FBS, two days with compound; concentration of total growth inhibition (cytostatic)
Where a SMILES comes first, the peptide text is derived from it. [ ]: non-standard residue; d: D form. The star is where a group is joined. Palmitoyl = CCCCCCCCCCCCCCCC(=O)*

{"COMPOUND": "CCCCCCCCCCCCCCCC(=O)N[C@@H](CCCNC(=N)N)C(=O)N[C@@H](CC(N)=O)C(=O)N[C@@H](CC(N)=O)C(=O)N[C@@H](CO)C(=O)N[C@@H](CCCNC(=N)N)C(=O)N[C@@H](CC(C)C)C(=O)NCC(=O)N[C@@H](CC(N)=O)C(=O)NCC(=O)N[C@H](C(=O)N[C@@H](CC(C)C)C(=O)N[C@@H](Cc1ccccc1)C(N)=O)C(C)C [Peptide 29, Pal-RNNSRLGNGVLF-NH2] (Palmitoyl-RNNSRLGNGVLF-NH2)", "UNIT_SPEC": "nM", "TGI": 1200}
{"COMPOUND": "CCCCCCCCCCCCCCCC(=O)NCCCC[C@@H](NC(=O)[C@@H](CCCNC(=N)N)NC(=O)[C@@H](CC(N)=O)NC(=O)[C@@H](CC(N)=O)NC(=O)[C@@H](CO)NC(=O)[C@@H](CCCNC(=N)N)NC(=O)[C@@H](CC(C)C)NC(=O)CNC(=O)[C@@H](CC(N)=O)NC(=O)CNC(=O)[C@H](NC(=O)[C@@H](CC(C)C)NC(=O)[C@@H](Cc1ccc(O)cc1)NC(C)=O)C(C)C)C(N)=O [Peptide 18, Ac-YLVGNGLRSNNRK-(ε-Pal)] (Ac-[dY][dL][dV]G[dN]G[dL][dR][dS][dN][dN][dR][dK](Palmitoyl)-NH2; C-terminus assumed)", "UNIT_SPEC": "nM", "TGI": 400}
